- assaySystem: T1, Lon (wildtype) (UniProt P0CAW0 1-799)
- T1 sequence: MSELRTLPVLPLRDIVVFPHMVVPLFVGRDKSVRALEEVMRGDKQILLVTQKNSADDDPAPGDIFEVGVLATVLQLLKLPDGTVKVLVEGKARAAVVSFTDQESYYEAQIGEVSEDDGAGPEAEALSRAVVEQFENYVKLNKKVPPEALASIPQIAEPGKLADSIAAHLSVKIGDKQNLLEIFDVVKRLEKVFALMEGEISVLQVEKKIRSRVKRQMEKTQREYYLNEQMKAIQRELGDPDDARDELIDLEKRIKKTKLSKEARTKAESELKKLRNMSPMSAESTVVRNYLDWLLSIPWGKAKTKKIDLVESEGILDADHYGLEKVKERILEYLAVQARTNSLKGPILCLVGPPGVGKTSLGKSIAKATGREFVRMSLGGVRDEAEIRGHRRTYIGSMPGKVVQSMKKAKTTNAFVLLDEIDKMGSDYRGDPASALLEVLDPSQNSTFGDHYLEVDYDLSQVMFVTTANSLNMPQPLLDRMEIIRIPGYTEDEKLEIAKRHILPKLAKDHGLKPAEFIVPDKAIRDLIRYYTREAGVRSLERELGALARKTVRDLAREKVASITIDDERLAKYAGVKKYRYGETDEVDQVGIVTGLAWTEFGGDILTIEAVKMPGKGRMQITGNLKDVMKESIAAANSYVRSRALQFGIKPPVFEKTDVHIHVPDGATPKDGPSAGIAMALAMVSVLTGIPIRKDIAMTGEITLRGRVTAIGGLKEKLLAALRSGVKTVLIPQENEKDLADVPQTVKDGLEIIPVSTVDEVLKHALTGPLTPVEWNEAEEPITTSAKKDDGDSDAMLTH
- assayRemarks: fluorescence polarization
pKd: −log10 of the molar value.
attributeMeasured: pKd

binder: AACGGATGATCCACAGGAGAGTCTGGCGCAGGGCGAGAG (ssDNA) [FAM-DNA oligo]
reading: 6.54
